TARGET ENTITY: T1, full-length human APLNR (human, UniProt P35414 1-380)
T1 construct: Stably expressed on HEK293/CRE-luc/hAPLNR cells (FACS, CRE-luc assays) and on CHO/hAPLNR cells (pERK assays); also called hAPLNR; apelin receptor
T1 sequence: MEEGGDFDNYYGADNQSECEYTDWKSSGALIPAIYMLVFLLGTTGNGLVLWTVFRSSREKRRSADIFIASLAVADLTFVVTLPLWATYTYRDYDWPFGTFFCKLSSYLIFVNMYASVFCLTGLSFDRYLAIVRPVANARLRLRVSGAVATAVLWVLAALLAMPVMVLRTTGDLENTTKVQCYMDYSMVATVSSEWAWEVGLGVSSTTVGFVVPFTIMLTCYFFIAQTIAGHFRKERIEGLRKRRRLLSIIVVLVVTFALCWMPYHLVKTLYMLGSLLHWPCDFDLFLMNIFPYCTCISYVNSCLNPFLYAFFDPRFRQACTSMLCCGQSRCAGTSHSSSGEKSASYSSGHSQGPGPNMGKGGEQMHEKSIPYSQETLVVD
PROTOCOL TEXT: FACS, 10 µg/mL antibody, HEK293/CRE-luc/hAPLNR cells
Known Binding Ratio of Geom. Mean to Unstained Cells of a selection of binders
Note: unit fold is implicit; provide only the numeric part.

binder="H4H9101P (antibody, V domains shown, Fully human, human IgG4 Fc) VH: QVQLVQSGAEVKKPGASVEVSCKASGYTFTDYYIHWIRQAPGQGLEWMGWINPDSGRTNYAQKFQVRVTMTRDTSITTAYMELNRLKSDDTAVYYCARGPLRGYSGYDFFDYWGQGTLVTVSS VL: DIQLTQSPSFLSASVGDRVTITCWASQGISSYLAWYQQKPGKAPKLLIYAASTLQSGVPSRFSGSGSGTEFTLTISSLQPEDFASYFCQQLNSNPRTFGQGTKVEIK" u=fold measured=3

Q) Given the binder H4H9113P (antibody, V domains shown, Fully human, human IgG4 Fc) VH: QVQLVQSGAEVKKPGASVEVSCKASGYTFTDYYIHWIRQAPGQGLEWMGWINPDSGRTNYAQKFQVRVTMTRDTSITTAYMELNRLKSDDTAVYYCARGPLRGYSGYDFFDYWGQGTLVTVSS VL: DIQMTQSPSSLSASVGDRVTITCRASQGIRNDLGWYQQKPGKAPNRLIYAASSLQSGVPSRFSGSGSGTEFTLTISSLHPEDFATYSCLQHNSFPLTFGGGTKVEIK , what is its reported Binding Ratio of Geom. Mean to Unstained Cells?
A) 2

Q) Given the binder H4H9104P (antibody, V domains shown, Fully human, human IgG4 Fc) VH: QVQLVESGGDLVKPGGSLRLSCAASGFTFSDYYMNWIRQAPGKGLEWVSYISSSGSTIHYADSVKGRFTISRDNAKNLVYLRMNSLRAEDTAVYFCAREREVHDYSDPYFFFYGMDVWGQGTTVTVSS VL: DIQMTQSPSSVSASVGDRVTITCRASQDVSSWLAWYQHKPGKAPKLLIFAASSLQSGVPSRFSGSGSGTDFTLTISSLQSEDFATYYCQQANSFPLTFGGGTKVEIK , what is its reported Binding Ratio of Geom. Mean to Unstained Cells?
A) 2
